method description: Drug uptake in tumor of C57BL/6J mouse xenografted with mouse B16F0 cells at 3.7 MBq, iv after 6 hrs by gamma scintigraphic imaging analysis relative to control
Assay type: ADME, organism-based, Neoplasm
condition notes: in vivo
Threshold-based label: Drug uptake under 20 % ID/g gives Met, Drug uptake not under 20 % ID/g gives Not met.

INSERT INTO results (structure, class_name) VALUES
  ('CCN(CCCF)CCNC(=O)c1cnc2cc([125I])ccc2n1', 'Met'),
  ('CCN(CCNC(=O)c1cnc2cc([125I])ccc2n1)CCOCCOCCOCCOCCOCCOCCOCCF', 'Met'),
  ('CCN(CCF)CCNC(=O)c1cnc2cc([125I])ccc2n1.Cl', 'Not met'),
  ('CCN(C/C=C/CF)CCNC(=O)c1cnc2cc([125I])ccc2n1.Cl', 'Met'),
  ('CCN(CCNC(=O)c1cnc2cc([125I])ccc2n1)Cc1cn(CCF)nn1.Cl', 'Met'),
  ('CCN(CC#CCF)CCNC(=O)c1cnc2cc([125I])ccc2n1.Cl', 'Not met'),
  ('CCN(CCNC(=O)c1cnc2cc([125I])ccc2n1)CCOCCOCCOCCF.Cl', 'Met');

The measured values listed here are drawn from ChEMBL document CHEMBL2375235.
